Taken from ChEMBL document CHEMBL2169805.

Target chain: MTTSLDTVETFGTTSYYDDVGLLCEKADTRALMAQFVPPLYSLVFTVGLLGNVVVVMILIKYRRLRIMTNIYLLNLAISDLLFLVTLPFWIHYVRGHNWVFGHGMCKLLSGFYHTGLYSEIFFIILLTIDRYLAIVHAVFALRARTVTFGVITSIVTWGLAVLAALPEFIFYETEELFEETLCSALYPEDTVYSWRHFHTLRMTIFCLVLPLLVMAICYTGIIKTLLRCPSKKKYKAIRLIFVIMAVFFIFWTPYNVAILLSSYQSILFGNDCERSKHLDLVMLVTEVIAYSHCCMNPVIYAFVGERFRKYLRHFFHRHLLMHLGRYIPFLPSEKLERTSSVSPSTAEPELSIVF
pKi: −log10 of the molar value.
assay.readout: pKi

These solved cases illustrate the format of a correct answer.
Cc1ccccc1S(=O)(=O)NC(=O)N1CCC(N2CCC(Oc3ccc(Cl)c(Cl)c3)CC2)CC1	7.70
O=C(NS(=O)(=O)c1ccccc1)N1CCC(N2CCC(Oc3ccc(Cl)c(Cl)c3)CC2)CC1	7.80
Cc1ccc(C(=O)N2CCC(N3CC[C@@H](Oc4ccc(Cl)c(C)c4Cl)C[C@H]3C(=O)O)CC2)cc1	5.60
Cc1ccc(S(=O)(=O)NC(=O)N2CCC(N3CCC(Oc4ccc(Cl)cc4)CC3)CC2)cc1	6.90

1. Cc1ccc(C(=O)N2CCC(N3CC[C@H](Oc4ccc(Cl)c(C)c4Cl)C[C@@H]3C(=O)O)CC2)cc1
2. CS(=O)(=O)c1cccc(C(=O)N2CCC(N3CCC(Oc4ccc(Cl)c(Cl)c4)CC3)CC2)c1
Q: From the items above, decide which of 1 and 2 has the lower pKi reading. Please reply using the label of the selected record.
Result: 1
